A collection of molecules and their measured TGI
System: RXF 393 renal
Assay protocol: NCI tumour cell line growth inhibition, 48 h
Measured metric: TGI

COc1ccccc1/C=C\C(=O)c1ccccc1 | 27.4 µM
O=c1oc2ccc(F)cc2c(=O)n1-c1ccc(Br)cc1F | 4.66 µM
CCOC(=O)CCCn1cc(C(=O)OC)nn1 | > 100 µM
C[N+](C)=c1nc(N2CCOCC2)ss1 | > 100 µM
Cn1c(=O)sc2cc(C(=S)N3CCOCC3)ccc21 | > 100 µM
COc1ccc2[nH]c(-c3ccccc3)cc2c1 | > 100 µM
O=C(Nc1ccc(Cl)cc1)Nc1ccccc1CNc1nc(Nc2ccc(OCCN3CCCC3)cc2)ncc1Cl | 1.76 µM
O=C1CSC2(CC(/C=C/c3ccccc3Br)=NN2c2cccc(S(=O)(=O)O)c2)N1c1nc2ccccc2s1 (configuration not stated) | > 100 µM
O=c1oc2ccc(Cl)cc2cc1-c1cn2ccsc2n1 | > 100 µM
Cn1cnc([N+](=O)[O-])c1Sc1nc(N)nc2nc[nH]c12 | > 91.7 µM
CC(=O)NC1=C(NCC(C)C)C(=O)c2ccccc2C1=O | 25.4 µM
CCCn1cnc2c(SCc3ccccc3)nc(N)nc21 | > 100 µM

====

Test system: NCI-H522 lung
Assay protocol: NCI tumour cell line growth inhibition, 48 h; in the data active means GI50 below about 0.43 µM; inactive means the rest
Outcomes: yes (1) for active, no (0) for inactive

CN(C)C/C=C/C(=O)Nc1ccc(C(=O)N2CCC[C@@H](Nc3ncc(Cl)c(-c4c[nH]c5ccccc45)n3)C2)cc1 | yes (1)
NC(N)=N/N=C/c1c(-c2ccc(Cl)c([N+](=O)[O-])c2)nc2n1CCS2 | no (0)
CCCCCCOc1ccc(C(=N)N(CCCC)CCCC)c2ccccc12 | no (0)
Cc1n(Cc2ccc3ccccc3c2)c(Cl)c(Cl)[n+]1Cc1ccc2ccccc2c1 | no (0)
CCCn1cnc2c(SCc3ccccc3)nc(N)nc21 | no (0)

====

System: OVCAR-3 ovarian
Assay protocol: NCI tumour cell line growth inhibition, 48 h
Listed here: items and their measured TGI.
Measured metric: TGI

CC(=O)OCCC(O[Si](c1ccccc1)(c1ccccc1)C(C)(C)C)C(C)(C)O (stereo not given) | 62.2 µM
CC1(C)CCC2(C(=O)OC3OC(CO)C(O)C(O)C3O)CCC3(CO)C(=CCC4C5(C)CC(O)C(O)C(C)(C(=O)OC6OC(CO)C(O)C(O)C6O)C5CCC43C)C2C1 (stereo not given) | > 100 µM
Cc1nnc(N=Nc2c(O)[nH]c3ccccc23)n1N | > 100 µM
COc1ccc(C(=O)c2ccc(-n3cc(/C=C/[N+](=O)[O-])c4ccccc43)cc2)cc1 | 27.1 µM
COc1ccc(-c2cc(/C=C/C(=O)c3cc(OC)c(OC)c(OC)c3)[nH]n2)cc1OC | 3.15 µM
c1ccc(NC[Si]23OCCN(CCO2)CCO3)cc1 | > 100 µM
COc1cc2nnn3c4ncccc4c(N=O)c3c2cc1OC | > 100 µM
COc1cc2cc(Oc3ccc(NC(=O)c4cccc5c4OCCO5)cc3)c(C)nc2cc1OC | > 100 µM
COc1ccc(C=Nc2ccc(-c3nc4ccccc4[nH]3)cc2)cc1OC | > 100 µM
CCCCCCCCCC(=O)Oc1cccc2onc(C)c12 | > 100 µM
